Assay system: SmDPP7
Assay method text: Inhibition assay using dipeptide library, Tyr-Tyr-MCA hydrolysis
Stated conditions: Xaa-Tyr as competitive inhibitor; substrate 200 µM Tyr-Tyr-MCA; pH 7.0, 298 K; Ki from IC50 by Cheng-Prusoff
pKi: −log10 of the molar value. Residues, ends and D or L forms follow the SMILES beside them.
Measurement name: pKi

[[record]]
molecule = "CC(C)[C@H](N)C(=O)N[C@@H](Cc1ccc(O)cc1)C(=O)O [Val-Tyr] (H-Val-Tyr-OH)"
val = 4.26


Sourced from paper PMC8041751
